Measured kcat by item
Assay: Steady-state kinetics: turnover
Type: biochemical, Chromobacterium violaceum
Details: enzyme variant as labelled; DMPH4 cofactor, 20 °C, pH 7.4

{"columns": ["molecule", "kcat (s^–1)"],
 "data": [
  ["D139E (protein, UniProt P30967 1-297, looked up, variant D139E) Phenylalanine-4-hydroxylase: MNDRADFVVPDITTRKNVGLSHDANDFTLPQPLDRYSAEDHATWATLYQRQCKLLPGRACDEFMEGLERLEVDADRVPDFNKLNQKLMAATGWKIVAVPGLIPDDVFFEHLANRRFPVTWWLREPHQLDYLQEPDVFHELFGHVPLLINPVFADYLEAYGKGGVKAKALGALPMLARLYWYTVEFGLINTPAGMRIYGAGILSSKSESIYCLDSASPNRVGFDLMRIMNTRYRIDTFQKTYFVIDSFKQLFDATAPDFAPLYLQLADAQPWGAGDVAPDDLVLNAGDRQGWADTEDV", 1.9],
  ["wild type: wild-type phenylalanine hydroxylase from Chromobacterium violaceum (cPAH) (protein, UniProt P30967 1-297, looked up) Phenylalanine-4-hydroxylase: MNDRADFVVPDITTRKNVGLSHDANDFTLPQPLDRYSAEDHATWATLYQRQCKLLPGRACDEFMEGLERLEVDADRVPDFNKLNQKLMAATGWKIVAVPGLIPDDVFFEHLANRRFPVTWWLREPHQLDYLQEPDVFHDLFGHVPLLINPVFADYLEAYGKGGVKAKALGALPMLARLYWYTVEFGLINTPAGMRIYGAGILSSKSESIYCLDSASPNRVGFDLMRIMNTRYRIDTFQKTYFVIDSFKQLFDATAPDFAPLYLQLADAQPWGAGDVAPDDLVLNAGDRQGWADTEDV", 18.6],
  ["D139N (protein, UniProt P30967 1-297, looked up, variant D139N) Phenylalanine-4-hydroxylase: MNDRADFVVPDITTRKNVGLSHDANDFTLPQPLDRYSAEDHATWATLYQRQCKLLPGRACDEFMEGLERLEVDADRVPDFNKLNQKLMAATGWKIVAVPGLIPDDVFFEHLANRRFPVTWWLREPHQLDYLQEPDVFHNLFGHVPLLINPVFADYLEAYGKGGVKAKALGALPMLARLYWYTVEFGLINTPAGMRIYGAGILSSKSESIYCLDSASPNRVGFDLMRIMNTRYRIDTFQKTYFVIDSFKQLFDATAPDFAPLYLQLADAQPWGAGDVAPDDLVLNAGDRQGWADTEDV", 1.2]
]}
